target system: Protein cereblon/CREB-binding protein (Homo sapiens) (UniProt Q92793+Q96SW2)
Sequence (Q92793 2-2442 limits assumed): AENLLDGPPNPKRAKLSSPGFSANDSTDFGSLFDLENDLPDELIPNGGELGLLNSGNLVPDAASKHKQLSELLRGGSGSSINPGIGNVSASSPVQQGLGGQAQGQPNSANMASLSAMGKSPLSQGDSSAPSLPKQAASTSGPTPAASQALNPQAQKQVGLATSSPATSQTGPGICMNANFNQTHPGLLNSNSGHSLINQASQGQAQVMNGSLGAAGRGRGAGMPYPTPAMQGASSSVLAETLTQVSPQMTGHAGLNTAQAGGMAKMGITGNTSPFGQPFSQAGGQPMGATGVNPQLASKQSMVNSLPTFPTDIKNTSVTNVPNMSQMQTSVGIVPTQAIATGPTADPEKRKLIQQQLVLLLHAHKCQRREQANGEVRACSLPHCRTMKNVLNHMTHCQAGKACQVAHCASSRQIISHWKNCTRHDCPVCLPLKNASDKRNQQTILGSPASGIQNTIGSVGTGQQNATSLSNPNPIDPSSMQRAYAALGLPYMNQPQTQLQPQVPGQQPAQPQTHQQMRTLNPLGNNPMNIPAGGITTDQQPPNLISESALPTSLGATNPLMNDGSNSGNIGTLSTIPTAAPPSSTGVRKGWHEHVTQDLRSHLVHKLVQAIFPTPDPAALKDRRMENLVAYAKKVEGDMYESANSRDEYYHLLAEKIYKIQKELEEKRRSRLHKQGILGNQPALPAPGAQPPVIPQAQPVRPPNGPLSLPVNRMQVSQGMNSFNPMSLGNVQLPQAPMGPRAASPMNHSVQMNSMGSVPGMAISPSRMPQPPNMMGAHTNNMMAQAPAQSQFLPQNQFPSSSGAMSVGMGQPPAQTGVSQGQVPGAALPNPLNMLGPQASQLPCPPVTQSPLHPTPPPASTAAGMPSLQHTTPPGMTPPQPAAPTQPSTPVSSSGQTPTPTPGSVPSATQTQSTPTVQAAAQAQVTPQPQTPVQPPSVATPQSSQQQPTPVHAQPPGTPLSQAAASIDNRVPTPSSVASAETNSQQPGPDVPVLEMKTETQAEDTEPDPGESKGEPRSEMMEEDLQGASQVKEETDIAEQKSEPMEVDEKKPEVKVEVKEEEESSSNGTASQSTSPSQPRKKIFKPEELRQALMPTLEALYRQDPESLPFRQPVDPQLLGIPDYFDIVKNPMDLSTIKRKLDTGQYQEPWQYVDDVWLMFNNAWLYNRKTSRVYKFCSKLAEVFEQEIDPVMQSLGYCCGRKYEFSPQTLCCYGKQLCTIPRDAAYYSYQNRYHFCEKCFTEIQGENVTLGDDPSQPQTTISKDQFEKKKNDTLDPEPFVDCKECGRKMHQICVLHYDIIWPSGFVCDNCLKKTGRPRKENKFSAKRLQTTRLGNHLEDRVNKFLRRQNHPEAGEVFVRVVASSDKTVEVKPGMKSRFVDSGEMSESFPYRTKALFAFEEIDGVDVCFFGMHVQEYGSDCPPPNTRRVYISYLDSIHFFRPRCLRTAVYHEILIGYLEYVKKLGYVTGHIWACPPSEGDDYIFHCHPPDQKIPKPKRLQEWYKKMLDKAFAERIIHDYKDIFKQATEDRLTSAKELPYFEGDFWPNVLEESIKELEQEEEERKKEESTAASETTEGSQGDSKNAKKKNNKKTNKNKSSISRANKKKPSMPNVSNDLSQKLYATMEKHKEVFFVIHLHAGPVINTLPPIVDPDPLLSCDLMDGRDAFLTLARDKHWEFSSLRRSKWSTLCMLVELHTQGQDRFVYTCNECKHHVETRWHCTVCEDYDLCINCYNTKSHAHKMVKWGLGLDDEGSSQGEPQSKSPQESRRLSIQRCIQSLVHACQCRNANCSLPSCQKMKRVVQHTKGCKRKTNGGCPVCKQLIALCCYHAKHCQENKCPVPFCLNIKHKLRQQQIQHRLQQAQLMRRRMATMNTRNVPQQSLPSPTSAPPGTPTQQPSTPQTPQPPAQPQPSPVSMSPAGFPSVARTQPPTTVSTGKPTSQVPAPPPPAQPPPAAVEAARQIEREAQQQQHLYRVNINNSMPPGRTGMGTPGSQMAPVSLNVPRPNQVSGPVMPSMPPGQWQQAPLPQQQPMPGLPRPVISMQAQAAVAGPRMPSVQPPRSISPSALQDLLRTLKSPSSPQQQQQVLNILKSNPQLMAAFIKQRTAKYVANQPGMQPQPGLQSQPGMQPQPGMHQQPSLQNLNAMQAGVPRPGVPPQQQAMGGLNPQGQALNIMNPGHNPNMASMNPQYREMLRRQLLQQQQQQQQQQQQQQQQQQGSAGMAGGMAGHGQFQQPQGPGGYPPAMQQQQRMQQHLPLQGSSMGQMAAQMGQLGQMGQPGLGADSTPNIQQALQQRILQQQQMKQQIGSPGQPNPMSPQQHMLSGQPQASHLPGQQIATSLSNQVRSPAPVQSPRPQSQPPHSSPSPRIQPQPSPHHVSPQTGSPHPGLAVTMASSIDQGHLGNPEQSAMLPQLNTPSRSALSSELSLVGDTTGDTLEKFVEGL
Sequence (Q96SW2 whole entry partner): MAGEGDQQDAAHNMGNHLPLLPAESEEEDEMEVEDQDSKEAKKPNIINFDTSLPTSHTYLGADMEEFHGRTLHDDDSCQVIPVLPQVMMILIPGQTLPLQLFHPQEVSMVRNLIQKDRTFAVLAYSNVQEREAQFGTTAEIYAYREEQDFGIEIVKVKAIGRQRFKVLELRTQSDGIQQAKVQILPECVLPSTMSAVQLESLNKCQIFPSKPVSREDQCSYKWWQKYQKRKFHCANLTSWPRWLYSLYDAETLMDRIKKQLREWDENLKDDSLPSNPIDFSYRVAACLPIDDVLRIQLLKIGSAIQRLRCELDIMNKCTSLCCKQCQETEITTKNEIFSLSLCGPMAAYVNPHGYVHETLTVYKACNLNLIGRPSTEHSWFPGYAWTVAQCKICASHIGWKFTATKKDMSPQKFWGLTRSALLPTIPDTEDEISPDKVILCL
procedure summary: PROTAC activity at CRBN/HiBiT-tagged CBP in human HAP1 cells assessed as total cumulative degradation by measuring AUC at 100 nM measured over 24 hrs by luminescence based analysis
Assay type: cell-based
Decide using AUC alone. Strictly below 10: 1. Equal to or above 10: 0.

CNC(=O)N1CCc2c(c(N3CCN(C(=O)NCCOCCOCCOCCOCCOCCOCCNc4ccc5c(c4)C(=O)N(C4CCC(=O)NC4=O)C5=O)c4cc(-c5cnn(C)c5)c(C(F)(F)F)cc43)nn2C2CCOCC2)C1 (stereo not given)    0
CNC(=O)N1CCc2c(c(N3CCCc4cc(-c5cnn(C)c5)c(C(F)(F)F)cc43)nn2C2CCN(C(=O)CCOCCOCCOCCOCCNc3ccc4c(c3)C(=O)N(C3CCC(=O)NC3=O)C4=O)CC2)C1 (stereo not given)    1
CNC(=O)N1CCc2c(c(N3CCN(C(=O)NCCOCCNc4ccc5c(c4)C(=O)N(C4CCC(=O)NC4=O)C5=O)c4cc(-c5cnn(C)c5)c(C(F)(F)F)cc43)nn2C2CCOCC2)C1 (stereo not given)    0

Ask: I wonder whether CNC(=O)N1CCc2c(c(N3CCCc4cc(-c5cnn(C)c5)c(C(F)F)cc43)nn2C2CCN(C(=O)CCOCCOCCOCCOCCNc3ccc4c(c3)C(=O)N(C3CCC(=O)NC3=O)C4=O)CC2)C1 (stereo not given) has AUC below 10. Can you tell?
Result: 1

Ask: Report whether reported AUC is lower than 10 (strictly) for CNC(=O)N1CCc2c(c(N3CCCc4cc(-c5cnn(CC(=O)NCCOCCOCCOCCOCCNc6ccc7c(c6)C(=O)N(C6CCC(=O)NC6=O)C7=O)c5)c(C(F)F)cc43)nn2C2CCOCC2)C1 (stereo not given)
Result: 0

Ask: Decide: AUC of CNC(=O)N1CCc2c(c(N3CCCc4cc(-c5cnn(CC(=O)NCCOCCNc6ccc7c(c6)C(=O)N(C6CCC(=O)NC6=O)C7=O)c5)c(C(F)F)cc43)nn2C2CCOCC2)C1 (stereo not given) strictly below 10?
Result: 0

Ask: Hi there! Is AUC for CNC(=O)N1CCc2c(c(N3CCN(C(=O)NCCOCCOCCOCCOCCNc4ccc5c(c4)C(=O)N(C4CCC(=O)NC4=O)C5=O)c4cc(-c5cnn(C)c5)c(C(F)(F)F)cc43)nn2C2CCOCC2)C1 (stereo not given) below 10, do you know?
Result: 0

Ask: Could you please tell me whether AUC recorded for CNC(=O)N1CCc2c(c(N3CCCc4cc(-c5cnn(CC(=O)NCCOCCOCCOCCOCCOCCOCCNc6ccc7c(c6)C(=O)N(C6CCC(=O)NC6=O)C7=O)c5)c(C(F)F)cc43)nn2C2CCOCC2)C1 (stereo not given) is less than 10?
Result: 0

Ask: AUC strictly < 10 for this molecule? CNC(=O)N1CCc2c(c(N3CCCc4cc(-c5cnn(C)c5)c(C(F)F)cc43)nn2C2CCN(C(=O)CCOCCNc3ccc4c(c3)C(=O)N(C3CCC(=O)NC3=O)C4=O)CC2)C1 (stereo not given)
Result: 0

Ask: Would you kindly verify if AUC of CNC(=O)N1CCc2c(c(N3CCCc4cc(-c5cnn(C)c5)c(C(F)F)cc43)nn2C2CCN(C(=O)CCOCCOCCOCCOCCOCCOCCNc3ccc4c(c3)C(=O)N(C3CCC(=O)NC3=O)C4=O)CC2)C1 (stereo not given) is strictly less than 10?
Result: 1

----------
target system: Protein cereblon/CREB-binding protein (Homo sapiens) (UniProt Q92793+Q96SW2)
procedure summary: PROTAC activity at CRBN/HiBiT-tagged CBP in human HAP1 cells assessed as induction of CBP degradation by measuring maximal efficacy at 10 nM measured over 24 hrs by luminescence based analysis relative to control
Format: cell-based
The threshold is inclusive: Emax of exactly 70% counts as t; values below receive f.

Look over these answered cases.
CNC(=O)N1CCc2c(c(N3CCCc4cc(-c5cnn(CC(=O)NCCOCCNc6ccc7c(c6)C(=O)N(C6CCC(=O)NC6=O)C7=O)c5)c(C(F)F)cc43)nn2C2CCOCC2)C1 (stereo unspecified)    f
CNC(=O)N1CCc2c(c(N3CCCc4cc(-c5cnn(C)c5)c(C(F)(F)F)cc43)nn2C2CCN(C(=O)CCOCCOCCOCCOCCNc3ccc4c(c3)C(=O)N(C3CCC(=O)NC3=O)C4=O)CC2)C1 (stereo unspecified)    t
CNC(=O)N1CCc2c(c(N3CCCc4cc(-c5cnn(C)c5)c(C(F)F)cc43)nn2C2CCN(C(=O)CCOCCOCCOCCOCCNc3ccc4c(c3)C(=O)N(C3CCC(=O)NC3=O)C4=O)CC2)C1 (stereo unspecified)    t

Let us examine a further case.
Ask: Confirm if Emax reported for the molecule CNC(=O)N1CCc2c(c(N3CCCc4cc(-c5cnn(CC(=O)NCCOCCOCCOCCOCCNc6ccc7c(c6)C(=O)N(C6CCC(=O)NC6=O)C7=O)c5)c(C(F)F)cc43)nn2C2CCOCC2)C1 (stereo unspecified) is 70% or above.
Result: f

----------
target system: Protein cereblon/CREB-binding protein (Homo sapiens) (UniProt Q92793+Q96SW2)
procedure summary: PROTAC activity at CRBN/HiBiT-tagged CBP in human HAP1 cells assessed as total cumulative degradation by measuring AUC at 0.1 nM measured over 24 hrs by luminescence based analysis
Format: cell-based
readout label: AUC
Answer with a number only.

Example cases with answers are listed next.
CNC(=O)N1CCc2c(c(N3CCCc4cc(-c5cnn(C)c5)c(C(F)(F)F)cc43)nn2C2CCN(C(=O)CCOCCOCCOCCOCCNc3ccc4c(c3)C(=O)N(C3CCC(=O)NC3=O)C4=O)CC2)C1 (stereo not drawn)    20.8
CNC(=O)N1CCc2c(c(N3CCCc4cc(-c5cnn(CC(=O)NCCOCCOCCOCCOCCOCCOCCNc6ccc7c(c6)C(=O)N(C6CCC(=O)NC6=O)C7=O)c5)c(C(F)F)cc43)nn2C2CCOCC2)C1 (stereo not drawn)    22.8

Here's the next entry for you.
Ask: Item under review: CNC(=O)N1CCc2c(c(N3CCCc4cc(-c5cnn(C)c5)c(C(F)F)cc43)nn2C2CCN(C(=O)CCOCCNc3ccc4c(c3)C(=O)N(C3CCC(=O)NC3=O)C4=O)CC2)C1 (stereo not drawn) . Reported AUC?
Result: 23.7

----------
Measured AUC of individual entries
target system: Protein cereblon/CREB-binding protein (Homo sapiens) (UniProt Q92793+Q96SW2)
procedure summary: PROTAC activity at CRBN/HiBiT-tagged CBP in human HAP1 cells assessed as total cumulative degradation by measuring AUC at 0.1 nM measured over 24 hrs by luminescence based analysis
Format: cell-based
Form field (numeric): enter value without unit.

CNC(=O)N1CCc2c(c(N3CCN(C(=O)NCCOCCNc4ccc5c(c4)C(=O)N(C4CCC(=O)NC4=O)C5=O)c4cc(-c5cnn(C)c5)c(C(F)(F)F)cc43)nn2C2CCOCC2)C1 (configuration not stated)    25

Ask: Lab note: need AUC with Protein cereblon/CREB-binding protein (Homo sapiens) (UniProt Q92793+Q96SW2) for entry CNC(=O)N1CCc2c(c(N3CCCc4cc(-c5cnn(CC(=O)NCCOCCNc6ccc7c(c6)C(=O)N(C6CCC(=O)NC6=O)C7=O)c5)c(C(F)F)cc43)nn2C2CCOCC2)C1 (configuration not stated) , please look it up.
Result: 25.5

Ask: Report AUC for CNC(=O)N1CCc2c(c(N3CCCc4cc(-c5cnn(C)c5)c(C(F)F)cc43)nn2C2CCN(C(=O)CCOCCOCCOCCOCCOCCOCCNc3ccc4c(c3)C(=O)N(C3CCC(=O)NC3=O)C4=O)CC2)C1 (configuration not stated) tested on Protein cereblon/CREB-binding protein (Homo sapiens) (UniProt Q92793+Q96SW2).
Result: 24.2

Ask: Param readout = AUC; param system = Protein cereblon/CREB-binding protein (Homo sapiens) (UniProt Q92793+Q96SW2); param query = CNC(=O)N1CCc2c(c(N3CCN(C(=O)NCCOCCOCCOCCOCCNc4ccc5c(c4)C(=O)N(C4CCC(=O)NC4=O)C5=O)c4cc(-c5cnn(C)c5)c(C(F)(F)F)cc43)nn2C2CCOCC2)C1 (configuration not stated) ; response: value
Result: 24.4

Ask: For the record CNC(=O)N1CCc2c(c(N3CCCc4cc(-c5cnn(CC(=O)NCCOCCOCCOCCOCCNc6ccc7c(c6)C(=O)N(C6CCC(=O)NC6=O)C7=O)c5)c(C(F)F)cc43)nn2C2CCOCC2)C1 (configuration not stated) , what value of AUC is listed for Protein cereblon/CREB-binding protein (Homo sapiens) (UniProt Q92793+Q96SW2)?
Result: 23.4

Ask: Missing value: AUC, Protein cereblon/CREB-binding protein (Homo sapiens) (UniProt Q92793+Q96SW2), entry CNC(=O)N1CCc2c(c(N3CCCc4cc(-c5cnn(C)c5)c(C(F)F)cc43)nn2C2CCN(C(=O)CCOCCOCCOCCOCCNc3ccc4c(c3)C(=O)N(C3CCC(=O)NC3=O)C4=O)CC2)C1 (configuration not stated) . Fill in?
Result: 20.7

Ask: Value wanted: AUC (Protein cereblon/CREB-binding protein (Homo sapiens) (UniProt Q92793+Q96SW2)) of entry CNC(=O)N1CCc2c(c(N3CCN(C(=O)NCCOCCOCCOCCOCCOCCOCCNc4ccc5c(c4)C(=O)N(C4CCC(=O)NC4=O)C5=O)c4cc(-c5cnn(C)c5)c(C(F)(F)F)cc43)nn2C2CCOCC2)C1 (configuration not stated)
Result: 24.4
